Test system: CCRIS mutagenicity, Ames/micronucleus/aberration tests
Assay: CCRIS mutagenicity studies
Conditions: Test System: AMES SALMONELLA TYPHIMURIUM; Strain/Indicator: TA97; Metabolic Activation: RAT, LIVER, S-9, PHENOBARBITAL AND 5,6-BENZOFLAVONE; Method: PREINCUBATION
Activity calls are given as the source filed them. The rule behind the calls is not given here.
Outcomes: y = active, n = inactive

test_smiles	discrete_label
CC(C)=CCC1=C(O)c2ccccc2C(=O)C1=O	n
O=C(O)C(=O)C(=O)O	n
NC1=CC(=O)C(=O)c2ccccc21	y
COc1cc(O)c2c(=O)c3c(O)ccc(O)c3oc2c1	y
COc1cc(O)c2c(=O)c3cc(OC)ccc3oc2c1	y

---

Test system: CCRIS mutagenicity, Ames/micronucleus/aberration tests
Assay: CCRIS mutagenicity studies
Conditions: Test System: AMES SALMONELLA TYPHIMURIUM; Strain/Indicator: TA97; Metabolic Activation: HAMSTER, LIVER, S-9, AROCLOR 1254 (10%); Method: PREINCUBATION
Source text: The CCRIS database contains chemical records with carcinogenicity, mutagenicity, tumor promotion, and tumor inhibition test results. It was developed by the National Cancer Institute (NCI). Data are derived from studies cited in primary journals, current awareness tools, NCI reports, and other sources. Test results have been reviewed by experts in carcinogenesis and mutagenesis. CCRIS provides historical information from the years 1985 - 2011. It is no longer updated. […]
Activity calls are given as the source filed them. No rule for the calls is given here.
Labels: active, inactive

molecule	system	discrete_label
O=C1c2c(O)cccc2Cc2cccc(O)c21	CCRIS mutagenicity, Ames/micronucleus/aberration tests	inactive
O=C(O)CN(CCN(CC(=O)O)CC(=O)O)CC(=O)O	CCRIS mutagenicity, Ames/micronucleus/aberration tests	inactive
CC(=O)NBr	CCRIS mutagenicity, Ames/micronucleus/aberration tests	inactive
CCCCCCC=O	CCRIS mutagenicity, Ames/micronucleus/aberration tests	inactive
CCCCCCCC(=O)O	CCRIS mutagenicity, Ames/micronucleus/aberration tests	inactive
CCNc1cccc(O)c1	CCRIS mutagenicity, Ames/micronucleus/aberration tests	inactive
CCS(=O)CCSP(=O)(OC)OC (stereo not given)	CCRIS mutagenicity, Ames/micronucleus/aberration tests	inactive
CCC(CO)[N+](=O)[O-] (stereo not given)	CCRIS mutagenicity, Ames/micronucleus/aberration tests	inactive
CC(COc1ccccc1)N(CCCl)Cc1ccccc1 (stereo not given)	CCRIS mutagenicity, Ames/micronucleus/aberration tests	active
CN(C)c1ccc(N=Nc2ccccc2)cc1	CCRIS mutagenicity, Ames/micronucleus/aberration tests	inactive

---

Tested on: CCRIS mutagenicity, Ames/micronucleus/aberration tests
Assay: CCRIS mutagenicity studies
Details: Test System: AMES SALMONELLA TYPHIMURIUM; Strain/Indicator: TA1535; Metabolic Activation: RAT, LIVER, S-9, PHENOBARBITAL AND 5,6-BENZOFLAVONE; Method: STANDARD PLATE
Calls of active or inactive are those of the source. The rule behind the calls is not given here.

compound	mutagenic call
CCN(CC)CC#CC(C)(C)OC(=O)C(O)(c1ccccc1)C1CCCCC1 (centres undefined)	inactive; negative
CC(C)OC(=O)C(C)(C)Oc1ccc(C(=O)c2ccc(Cl)cc2)cc1	inactive; negative
CC(C)=CCC/C(C)=C/CC/C(C)=C/C(=O)OCC(=O)[C@@]1(O)CC[C@H]2[C@@H]3CCC4=CC(=O)C=C[C@]4(C)[C@H]3[C@@H](O)C[C@@]21C	inactive; negative
CCNCC#CC(C)(C)OC(=O)C(O)(c1ccccc1)C1CCCCC1 (centres undefined)	inactive; negative

---

System: CCRIS mutagenicity, Ames/micronucleus/aberration tests
Assay: CCRIS mutagenicity studies
Details: Test System: AMES SALMONELLA TYPHIMURIUM; Strain/Indicator: TA1538; Metabolic Activation: NONE; Method: STANDARD PLATE
Calls of active or inactive are those of the source. How the calls were made is not given here.
Possible outcomes: active, inactive

molecule	system	discrete_label
O=S(O)(O)=S	CCRIS mutagenicity, Ames/micronucleus/aberration tests	inactive
c1ccc2c(c1)cc1ccc3cc4ccccc4c4ccc2c1c34	CCRIS mutagenicity, Ames/micronucleus/aberration tests	inactive
CC1CCC(C(C)C)C(OC(=O)c2ccccc2N)C1 (configuration not stated)	CCRIS mutagenicity, Ames/micronucleus/aberration tests	inactive
COc1cccc2c1C(=O)c1c(O)c3c(c(O)c1C2=O)C[C@@](O)(C(=O)CO)C[C@@H]3O	CCRIS mutagenicity, Ames/micronucleus/aberration tests	active
c1ccc2c(c1)cc1c3c2ccc2cccc(c23)C2OC12 (configuration not stated)	CCRIS mutagenicity, Ames/micronucleus/aberration tests	active
C[C@]12CC[C@@H]3c4ccc(O)cc4CC[C@H]3[C@@H]1CC[C@@H]2O	CCRIS mutagenicity, Ames/micronucleus/aberration tests	inactive
COc1cccc2c1C(=O)c1c(O)c3c(c(O)c1C2=O)C[C@@](O)(C(=O)CO)C[C@@H]3O[C@H]1C[C@H](N)C[C@H](C)O1	CCRIS mutagenicity, Ames/micronucleus/aberration tests	active
C=CC(=O)OCCCCCOC(=O)C=C	CCRIS mutagenicity, Ames/micronucleus/aberration tests	inactive
OC(O)C(Cl)(Cl)Cl	CCRIS mutagenicity, Ames/micronucleus/aberration tests	inactive
CC(C)N1C(=O)c2ccccc2NS1(=O)=O	CCRIS mutagenicity, Ames/micronucleus/aberration tests	inactive
Cc1ccc(N)c(S(=O)(=O)O)c1	CCRIS mutagenicity, Ames/micronucleus/aberration tests	inactive
O=C(O)CN(CCN(CC(=O)O)CC(=O)O)CC(=O)O	CCRIS mutagenicity, Ames/micronucleus/aberration tests	inactive
Nc1ccc([N+](=O)[O-])c(O)c1	CCRIS mutagenicity, Ames/micronucleus/aberration tests	inactive
c1ccc2cc3cc4ccccc4cc3cc2c1	CCRIS mutagenicity, Ames/micronucleus/aberration tests	inactive
COc1cc(N)cc(OC)c1N	CCRIS mutagenicity, Ames/micronucleus/aberration tests	inactive
CCOCOCC	CCRIS mutagenicity, Ames/micronucleus/aberration tests	inactive
O=C(O)Cc1c[nH]c2ccccc12	CCRIS mutagenicity, Ames/micronucleus/aberration tests	inactive
C1CSCCO1	CCRIS mutagenicity, Ames/micronucleus/aberration tests	inactive
ON=C1CCCCC1	CCRIS mutagenicity, Ames/micronucleus/aberration tests	inactive
CCOC(=O)C1OC1c1ccccc1 (configuration not stated)	CCRIS mutagenicity, Ames/micronucleus/aberration tests	inactive
CC(O)CCC(=O)c1ccoc1 (configuration not stated)	CCRIS mutagenicity, Ames/micronucleus/aberration tests	inactive
O=[N+]([O-])OCC(CO[N+](=O)[O-])O[N+](=O)[O-]	CCRIS mutagenicity, Ames/micronucleus/aberration tests	inactive
Nc1nc2ccc([N+](=O)[O-])cc2s1	CCRIS mutagenicity, Ames/micronucleus/aberration tests	active
CC(C)(C#N)C(C)(C)C#N	CCRIS mutagenicity, Ames/micronucleus/aberration tests	inactive
C[C@]12C=CC3=C4CCC(=O)C=C4CC[C@H]3[C@@H]1CC[C@H]2O	CCRIS mutagenicity, Ames/micronucleus/aberration tests	inactive
C#C[C@]1(O)CC[C@H]2[C@@H]3CCC4=CC(=O)CC[C@@H]4[C@H]3CC[C@@]21C	CCRIS mutagenicity, Ames/micronucleus/aberration tests	inactive
N=c1ccc2nc3ccc(N)cc3sc-2c1	CCRIS mutagenicity, Ames/micronucleus/aberration tests	active

---

System: CCRIS mutagenicity, Ames/micronucleus/aberration tests
Test: CCRIS mutagenicity studies
Conditions: Test System: UDS RAT HEPATOCYTES; Strain/Indicator: THY INCORP; Metabolic Activation: NONE; Method: AUTORADIOGRAPHY
Calls of active or inactive are those of the source. How the calls were made is not given here.

test_smiles	mutagenic call
CCN(CC)c1ccc(N=Nc2ccc([N+](=O)[O-])cc2)cc1	inactive; negative
Cl/C=C/CCl	active; positive
O=C1c2cccc(O)c2C(=O)c2c(O)cc(CO)cc21	inactive; negative
Nc1cc2c3ccccc3ccc2c2ccccc12	active; positive
Cc1ccc(C(=O)c2cc(O)c(O)c([N+](=O)[O-])c2)cc1	inactive; negative
Nc1c2c(nc3ccccc13)CCCC2	active; positive
Nc1ccc(Cc2ccc(N)cc2)cc1	inactive; negative
C=CCSSSCC=C	inactive; negative
c1c[nH]cn1	inactive; negative
CN(C)N=O	active; positive
CCCC=O	active; positive

---

System: CCRIS mutagenicity, Ames/micronucleus/aberration tests
Test: CCRIS mutagenicity studies
Settings: Test System: AMES SALMONELLA TYPHIMURIUM; Strain/Indicator: TA1537; Metabolic Activation: RAT, LIVER, S-9; Method: PREINCUBATION
The source made the active and inactive calls. The rule behind the calls is not given here.

compound	mutagenic call
C1O[C@@H]1[C@@H]1CO1	inactive; negative
O=C1c2ccccc2C(=O)c2c(O)cc(O)cc21	active; positive
O=C1c2ccccc2C(=O)c2c1cc(O)c(CO)c2O	active; positive
O=C(O)C(F)(F)C(F)(Cl)C(F)(F)C(F)(Cl)C(F)(F)Cl (stereo not given)	inactive; negative
O=C1c2cccc(O)c2C(=O)c2c(O)cc(CO)cc21	active; positive

---

Tested on: CCRIS mutagenicity, Ames/micronucleus/aberration tests
Assay: CCRIS mutagenicity studies
Conditions: Test System: Ames Salmonella typhimurium; Strain/Indicator: TA1537; Metabolic Activation: None; Method: Preincubation
Calls of active or inactive are those of the source. No rule for the calls is given here.
Outcome codes: true for active, false for inactive

molecule	discrete_label
CC(C)C#N	true
Nc1ccc(N)cc1	false
O=[N+]([O-])c1ccc(Cl)cc1	false
C=Cc1ccc(S(=O)(=O)O)cc1	false
CC(C)(C)C(=O)C(Oc1ccc(Cl)cc1)n1ccnc1 (stereo not drawn)	false
CC(O)CC(C)(C)O (stereo not drawn)	false
Nc1ccc(I)cc1Cl	false
CC(C)CCCC(C)CCCC(C)CCCCC(C)CCCC(C)CCCC(C)C (stereo not drawn)	false
